Source of measurements: patent US20240010606A1

Catalogue of half-life at 10 μM readings, one per entry.
procedureSummary: Hepatocyte stability assay, human
Type: in vitro ADME
recordedConditions: cryopreserved hepatocytes, 10 μM compound, Table 5, read-out: T½

molecule | propertyLabel | obsValue
CCCCCC[C@@H](C)OC(=O)/C=C/C(=O)OCCC(=O)O | half-life at 10 μM | < 5 min
O=C(O)CCOC(=O)/C=C/C(=O)OC1(c2ccc(C(F)(F)F)cc2)CCC1 | half-life at 10 μM | 5 to 29 min
O=C(O)CCOC(=O)/C=C/C(=O)OC1CCCCC1 | half-life at 10 μM | 5 to 29 min
O=C(O)COC(=O)/C=C/C(=O)OC1CC2(CCC2)C1 | half-life at 10 μM | 30 to 100 min
O=C(O)COC(=O)/C=C/C(=O)OC1CCCCCCC1 | half-life at 10 μM | 30 to 100 min

Lab note: `CC(C)(COC(=O)/C=C/C(=O)OC1CCCCCCC1)C(=O)O` gave half-life at 10 μM of 5 to 29 min

Lab note: COC(=O)/C=C/C(=O)OCCN1C(=O)CCC1=O [reference compound] gave half-life at 10 μM of < 5 min
